Target: T1, recombinant human IL-23R/Fc chimera (R&D Systems) (human, UniProt Q5VWK5 24-353)
T1 construct: bought; also called human IL-23R/Fc fusion protein; rhIL23RFc
T1 sequence (looked up): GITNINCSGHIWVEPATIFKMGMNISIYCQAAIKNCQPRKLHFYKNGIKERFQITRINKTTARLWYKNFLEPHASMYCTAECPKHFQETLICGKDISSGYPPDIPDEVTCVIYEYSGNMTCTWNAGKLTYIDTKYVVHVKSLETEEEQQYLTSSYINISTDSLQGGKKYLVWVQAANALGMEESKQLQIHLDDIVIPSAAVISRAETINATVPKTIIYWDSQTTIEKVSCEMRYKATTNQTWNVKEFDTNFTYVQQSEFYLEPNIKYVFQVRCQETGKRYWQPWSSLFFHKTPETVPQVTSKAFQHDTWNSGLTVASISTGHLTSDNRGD
Assay: SPR (Biacore), captured IL-23R/Fc, ATRIMER
# koff values compiled below

[
  {
    "BINDER": "105-20-2A3 ATRIMER (designed binder, not shown: C-terminal tag: Myc/His6 (pANA4) or HA-StrepII (pANA10); A Ser left at the ompA junction may also sit at the N-terminus) EPPTQKPKKIVNAKKDVVNTKMFEELKSRLDTLAQEVALLKEQQALQTVCLKGTKVHMKCFLAFTQTKTFHEASEDCISRGGTLSTPQTGSENDALYEYLRQSVGNEAEIWLGLNGSPITNTWVDMTGARIAYKNWETEITAQPDGGFGYFGENCAVLSGAANGKWFDKRCRDQLPYICQFGIV",
    "koff [s⁻¹]": 0.000312
  },
  {
    "BINDER": "101-113-6C102 ATRIMER (designed binder, ATRIMER is a homotrimer; one protomer is given., not shown: C-terminal purification tag: Myc/His6 (pANA4) or HA-StrepII (pANA10)) EPPTQKPKKIVNAKKDVVNTKMFEELKSRLDTLAQEVALLKEQQALQTVCLKGTKVHMKCFLAFTQTKTFHEASEDCISRGGTLSTPQTGSENDALYEYLRQSVGNEAEIWLGLNGSNVTQTWVDMTGARIAYKNWEPPPPHHPQGGFGVFGENCAVLSGAANGKWFDKRCRDQLPYICQFGIV",
    "koff [s⁻¹]": 0.000283
  }
]
